target: Pim1 kinase (Homo sapiens); assay: KinaseGlo Pim1 ATP depletion assay; assay type: biochemical; conditions: Table 4, 2.5 nM PIM1, 20 μM ATP, 40 μM BAD peptide
Sequence (P11309 whole entry): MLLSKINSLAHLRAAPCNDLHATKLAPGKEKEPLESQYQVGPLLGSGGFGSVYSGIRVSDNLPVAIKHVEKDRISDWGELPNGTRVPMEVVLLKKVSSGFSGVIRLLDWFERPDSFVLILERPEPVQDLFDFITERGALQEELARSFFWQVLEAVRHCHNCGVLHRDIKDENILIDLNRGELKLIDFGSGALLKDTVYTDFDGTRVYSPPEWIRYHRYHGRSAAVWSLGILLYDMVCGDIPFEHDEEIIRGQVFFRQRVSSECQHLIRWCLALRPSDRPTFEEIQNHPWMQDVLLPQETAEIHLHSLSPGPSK
Measured IC50, listed per entry.
Express it in nM; write the number only.

Worked set:
C[C@H]1C[C@@H](c2ccncc2NC(=O)c2ccc(F)c(-c3c(F)ccc(N)c3F)n2)C[C@@H](O)[C@]1(C)O : 0.4
C[C@@H]1C[C@H](c2ccncc2NC(=O)c2ccnc(-c3c(F)cccc3F)n2)C[C@H](O)[C@]1(O)CO : 209
C[C@H]1C[C@@H](c2ccncc2NC(=O)c2ccc(F)c(-c3ccc(C#N)cc3F)n2)C[C@@H](O)[C@]1(C)O : 3.3
C[C@@H]1C[C@H](c2ccncc2NC(=O)c2cccc(-c3c(F)cccc3F)n2)C[C@H](O)[C@@]1(C)O : 15.1

// moving on: another record for IC50
Return reported IC50 for target or system Pim1 kinase (Homo sapiens), item "COC(=O)c1ccc(F)c(-c2ccc(N)c(C(=O)Nc3cnccc3[C@H]3C[C@@H](O)[C@](C)(O)[C@@H](C)C3)n2)n1" .
1.5
